Test method notes: growth inhibition of DIPG cells – cell-based, MIPE5.0 library, qHTS (AID 1347068);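 on IC50: cells exposed to compound for 48 hours before viability readout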
Test context: SU-DIPG-XXV viability
Records with an inconclusive call do not appear. The source made the active and inactive calls. Cut-off not given; nearly all actives show IC50 up to about 30 µM.
Give one outcome, nothing more. List: Yes for active, No for inactive

These solved cases illustrate the format of a correct answer.
smiles_structure=CC1(C)CCC2=C(O1)c1ccccc1C(=O)C2=O class_assignment=Yes
smiles_structure=COCCNCc1ccc(-c2cc3nccc(Oc4ccc(NC(=S)NC(=O)Cc5ccc(F)cc5)cc4F)c3s2)nc1 class_assignment=Yes

Now look at this entry.
# lookup: test call for C[C@H](c1ccc(F)cc1CCCC(=O)O)N(c1cc(F)ccc1F)S(=O)(=O)c1ccc(Cl)cc1 No

====

Test method notes: JHH-DIPG-1 glioma cell viability, MIPE5.0 library, CellTiter-Glo luminescence, qHTS (AID 1347067);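 further: cells exposed to compound for 48 hours before readout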
Test context: JHH-DIPG-1 glioma viability, CellTiter-Glo ATP luminescence
Inconclusive results are not listed. Active and inactive are the calls of the source. Cut-off not given; nearly all actives show AC50 up to about 26 µM.
Give one outcome, nothing more. List: label 1 = active, label 0 = inactive

These solved cases illustrate the format of a correct answer.
smiles_structure=O=C(/C=C/c1ccc(/C=C/C(=O)Nc2ccc(C3=NCCN3)cc2)cc1)Nc1ccc(C2=NCCN2)cc1 class_assignment="label 0"
smiles_structure=Nc1nc(NCCNc2ncc(-n3ccnc3)c(-c3ccc(Cl)cc3Cl)n2)ccc1[N+](=O)[O-] class_assignment="label 1"
smiles_structure=CNC(=O)Nc1ccc(-c2nc(N3CC4CCC(C3)O4)c3cnn(C4CCC5(CC4)OCCO5)c3n2)cc1 class_assignment="label 1"
smiles_structure=CCOC(=O)CCNc1cc(N2CCc3ccccc3CC2)nc(-c2ccccn2)n1 class_assignment="label 1"
smiles_structure=CCn1c(=O)c2c(nc(/C=C/c3ccc(OC)c(OC)c3)n2C)n(CC)c1=O class_assignment="label 0"

# lookup: test call for CC(C)(C)C(=O)N1N=CC[C@H]1c1ccccc1 label 0

# lookup: test call for O=C(O)CNC(=O)c1ncc(-c2cccc(Cl)c2)cc1O label 0

====

Test method notes: viability loss with induced miR-34 in A549 – imaging, A549 dox-inducible miR-34, nuclei and caspase counts, primary screen (AID 1347080)
Test context: A549 miR-34 inducible, Hoechst nuclei count, 48 h; measured here: relative caspase fold change +Dox/-Dox
Readout: fold change
When you answer, write just the number.

molecule="O=C(/C=C/c1ccccc1)NC(NC(=S)Nc1cccc2cccnc12)C(Cl)(Cl)Cl (stereo not drawn)" readout="fold change" recorded_value=1.71
molecule="Nc1cccc2c1C(=O)N(C1CCC(=O)NC1=O)C2=O (stereo not drawn)" readout="fold change" recorded_value=0.842

Consider the additional molecule presented here.
Form: molecule = CC(C)(C)c1nc(-c2cccc(NS(=O)(=O)c3c(F)cccc3F)c2F)c(-c2ccnc(N)n2)s1 ; fold change = 0.762

====

fold change listing for selected compounds.
Test method notes: viability loss with induced miR-34 in A549 – imaging, A549 dox-inducible miR-34, nuclei and caspase counts, primary screen (AID 1347080)
Test context: A549 miR-34 inducible, Hoechst nuclei count, 48 h; measured here: relative caspase fold change +Dox/-Dox
When you answer, write just the number.

// below: answered compounds
compound=O=C(c1cncc(Br)c1)N1CCC(N2CCCC2)CC1 recorded_value=0.588
compound=CCCCCCCCCCCCCCCCCC(=O)NCCS(=O)(=O)O recorded_value=0.61
compound=Cc1cnc(-c2cc(N3CCN(C(=O)CCS(C)(=O)=O)CC3)ncc2Cl)c(C)c1 recorded_value=0.666
compound="CS(=O)(=O)Nc1c(O)ccc2c1CCCC2C1=NCCN1 (configuration not stated)" recorded_value=0.792
compound=N=C(N)SCCc1ccc(OCc2ccc([N+](=O)[O-])cc2)cc1 recorded_value=0.93

Form: compound = CCCCCCCCCCCCCCCCOC[C@H](COP(=O)([O-])OCC[N+](C)(C)C)OC(=O)CCC ; fold change = 0.912

Form: compound = CCN(CC)Cc1ccc2cc(COC(=O)Nc3ccc(C(=O)NO)cc3)ccc2c1 ; fold change = 0.529

Form: compound = CCc1cc(Nc2nccc(-c3c(-c4ccc(OC)c(C(=O)Nc5c(F)cccc5F)c4)nc4ccccn34)n2)c(OC)cc1N1CCC(N2CCN(S(C)(=O)=O)CC2)CC1 ; fold change = 1.23

Form: compound = CCCCCCCCCCCCCCCCCCCCCCCC(=O)NCCS(=O)(=O)O ; fold change = 0.331

Form: compound = C[Se]CC[C@H](N)C(=O)O ; fold change = 0.907

Form: compound = O=C(NC1CCN(Cc2ccccc2)CC1)c1ccc(I)cc1 ; fold change = 0.815

Form: compound = N#Cc1ccccc1OCC(O)CNCCNC(=O)Nc1ccccc1 (configuration not stated) ; fold change = 1.36
